- procedure.summary: qHTS of pediatric cancer cell lines to identify multiple opportunities for drug repurposing: Primary screen for U-2 OS cells (AID 1347096); also: nearly all actives have a fitted effect of over 50% in size
- conditions.used: U-2 OS viability, CellTiter-Glo luminescence, 48 h; series mostly up to 46 µM
- Description: Drug repurposing or repositioning has been offered as a strategy for drug development in oncology programs. […] [1] Shen, M et al. Quantitative high-throughput phenotypic screening of pediatric cancer cell lines identifies multiple opportunities for drug repurposing. […] Cells were assayed in growth media at a density of 500-1,000 cells/well. […] After a 15 min incubation at room temperature, samples were analyzed for luminescence intensity using a ViewLux High-throughput CCD imager equipped with clear filters.
Results filed as inconclusive are left out. Activity calls are given as the source filed them. Calls follow the shape of the dose curve; as a rule, active = well fitted cell-killing curve with a large enough effect; inconclusive = small, poorly fitted or top-dose-only effect; inactive = flat fitted curve, though single readings scatter.
Choose the fitting class; nothing outside active, inactive is accepted.

Reference set (5 entries):
compound	assigned.class
CC(C)[C@H](N)C(=O)OCCOCn1cnc2c(=O)[nH]c(N)nc21	inactive
CC(C)C[C@H](NC(=O)[C@H](Cc1ccccc1)NC(=O)c1cnccn1)B(O)O	active
Oc1ccc2ccccc2c1SSc1c(O)ccc2ccccc12	inactive
CCOC(=O)c1c(C)n(C)c2ccc(O)cc12	inactive
Cc1ccc(C)c(OCCCC(C)(C)C(=O)O)c1	inactive

Q: # lookup: test call for O=C(OC1C[C@H]2CC[C@@H](C1)[N+]21CCCC1)C(O)(c1ccccc1)c1ccccc1 (stereo partly drawn)
Result: inactive

Q: # lookup: test call for `CCOC(=O)C1=C[C@@H](OC(CC)CC)[C@H](NC(C)=O)[C@@H](N)C1`
Result: inactive

Q: # lookup: test call for `CC(C)(S)[C@@H](N)C(=O)O`
Result: inactive

Q: # lookup: test call for `C[C@@H](c1ncncc1F)[C@](O)(Cn1cncn1)c1ccc(F)cc1F`
Result: inactive

Q: # lookup: test call for `CC(C)c1ccc2oc3nc(N)c(C(=O)O)cc3c(=O)c2c1`
Result: inactive

Q: # lookup: test call for `O=C(NCCO[N+](=O)[O-])c1cccnc1`
Result: inactive

Q: # lookup: test call for `O=c1ccc2ccc(O)c(O)c2o1`
Result: inactive

Q: # lookup: test call for `NCCCCNCCCN`
Result: inactive
